// provenance: PubChem BioAssay (NCI)

Tested on: LOX IMVI melanoma
Experiment: NCI tumour cell line growth inhibition, 48 h
RECORDED_METRIC: TGI (µM)
Numbers only, in µM.

O=C(N/C(=C\c1ccc([N+](=O)[O-])cc1)c1nc2ccccc2s1)c1ccccc1 : 46.5

Alright, here's another molecule for you.
For the molecule COc1ccc(/C=C/C(=O)c2c(-c3ccccc3)nn(C)c(=O)c2N2CC2C)cc1 (stereo not drawn) , report TGI.
34

###

Test system: OVCAR-3 ovarian
Experiment: NCI tumour cell line growth inhibition, 48 h; in the data active = GI50 below about 0.43 µM; inactive = the rest
Use one of these outcomes when replying: active, inactive

Reference set, count: 5
CCN(CC)CCOC(COc1cc(C)cc(C)c1)COc1cc(C)cc(C)c1 : inactive
CNC(=O)CCN1CCN(CC/C=C2\c3ccccc3Sc3ccc(Cl)cc32)CC1 : inactive
Nc1ccc(CC[C@H]2CCC/C=C/[C@@H]3C[C@H](O)C[C@H]3[C@H](O)/C=C/C(=O)O2)cc1 : active
O=c1c(I)c[nH]cc1I : inactive
Cc1ccc(-c2nc(NCCOCCOCCN)nc(N3CCN(c4ccccn4)CC3)n2)cc1 : inactive

# outcome recorded in this test, key = COC(=O)c1c(C)nc(C)c2c1C(=O)C(Br)=C(NCc1ccccc1)C2=O
inactive

Which outcome did this test record for the compound COc1cc(C(=O)c2cnc(-c3c[nH]c4cccc(C)c34)[nH]2)cc(OC)c1OC ?
active

###

System: KM12 colon
Test: NCI tumour cell line growth inhibition, 48 h
RECORDED_METRIC: TGI

Completed entries (count: 5):
CCOC(=O)c1ccc(N(CCOS(C)(=O)=O)CCOS(C)(=O)=O)cc1 : > 100 µM
OC12CCC3(OC4CCCCO4)c4ccccc4C3C1c1ccccc12 (configuration not stated) : > 100 µM
COC(=O)Cc1cc(=O)n2c3ccccc3n(C)c2c1C#N : > 100 µM
COc1cccc(NC(=O)CC(=O)NN)c1 : > 100 µM
Fc1ccccc1CN1COc2c(cc(Cl)c3cccnc23)C1 : 12.1 µM

Provide reported TGI for each item, in the same order as listed.
1. O=[N+]([O-])c1ccccc1N=Nc1c(O)[nH]c2c(Cl)cccc12
2. COC(=O)CC1(O)C(=O)OCc2c1cc1n(c2=O)Cc2c-1nc1ccccc1c2OC (configuration not stated)

1: > 80.3 µM; 2: > 100 µM

###

Test system: NCI-H460 lung
Assay: NCI tumour cell line growth inhibition, 48 h
Kindly supply the reported TGI values for the records listed here.

O=c1c(-c2nc3ccccc3c3ccccc3c2=O)nc2ccccc2c2ccccc12 : > 100 µM
O=C(/C=C/c1ccc(O)c(O)c1)N1CCN(c2ccc(Cl)cc2)CC1 : 21.5 µM

Can you give me TGI for all of these, one by one?
1. CCOc1ccc(NC(=O)CC2SC(=Nc3ccc(C)cc3)NC2=O)cc1 (stereo unspecified)
2. N#C/C(=C\c1ccc(O)cc1)C(N)=O

1. > 100 µM
2. > 100 µM

// batch mode: one TGI value per listed entry
1. COC(=O)Cc1cc(=O)n2c3ccccc3n(C)c2c1C#N
2. CN(C)S(=O)(=O)c1ccc2[nH]c(O)c(C3=Nc4ccccc4C3=O)c2c1

> 100 µM
97.5 µM

###

Test system: OVCAR-5 ovarian
Assay: NCI tumour cell line growth inhibition, 48 h; in the data active means GI50 below about 0.43 µM; inactive means the rest
Could you please pick one outcome from this set? active, inactive

Examples with answers:
CC(=O)ON(OCc1ccc2ccccc2c1)C(C)=O : inactive
CC1[C@@]2(CCC(C)(C)O2)O[C@@H]2C=C3C4CCC5Cc6nc7c(nc6C[C@@]5(C)C4C[C@H](O)[C@@]3(C)[C@]12O)CC1CCC2C3=C[C@H]4O[C@@]5(O[C@@](C)(CO)C[C@@H]5O)C(C)[C@@]4(O)[C@]3(C)[C@@H](O)CC2[C@]1(C)C7 (stereo partly specified) : active
[CH3][Sn]([CH3])([CH3])[S]C(=S)N1CCOCC1 : inactive
CCSC[C@@H]1C[C@](O)(c2ccccc2)[C@@H](c2ccccc2)O1 : inactive
N#C[S-].[La+3].c1ccc(-c2ccccn2)nc1.c1ccc(-c2ccccn2)nc1.c1ccc(-c2ccccn2)nc1 : inactive

Please turn your attention to the following entry.
Could you kindly confirm the outcome this assay logged for CCCN1C(=O)/C(=C/c2ccc(SC(F)(F)F)cc2)SC1=Nc1ccc(OC)cc1 ?
inactive
